- Tested on: MS2 coat protein
- methodNotes: apparent KD of MS2 coat protein; designed switch direction (-1 OFF switch, 1 ON switch): -1; higher = weaker reporter binding
- conditionDetails: input ligand: none
Parameter: apparent KD of MS2 coat protein. Scope: all listed entries.

seqText: ACGGACGCAGGAUAUCGCACCGGAGACUUGAGGAUCACCCAAGUGGUUUUCCCUUCGCAACGAGAAGGGCGACCUA [Tiarle] (Eterna round: R97, puzzle: Exclusion 5)
studySystem: MS2 coat protein
apparent KD of MS2 coat protein [nM]: 35.2
//
seqText: ACUUAUGCGGAGGAUAUUUAACGUAGCGAAAGUAAAGAAGGCCGAACAUGAGGAUCACCCAUGUGGAGGUGUAA [Eternabot (L1) Solution 24] (Eterna round: R97, puzzle: Exclusion 6)
studySystem: MS2 coat protein
apparent KD of MS2 coat protein [nM]: 23
//
seqText: UACAUGAGGAUCACCCAUGUUUUGUCGUGUAUGGUAUUUAUCUAGGAUAUCAUUAUAUUUAGUUAUGAGAAGGAGAAUAUUAAU [JMF's solution 82] (Eterna round: R96, puzzle: Exclusion NG 3)
studySystem: MS2 coat protein
apparent KD of MS2 coat protein [nM]: 44.6
//
seqText: CUCCGGCGUGUAGGAUAUGGUUCCGUUUCGGUUCCAGAAGGACAUGAGGAUCACCCAUGUACAUGUCGUCGGUCGUCACCGGGC [salish99_ExNG1_r04_215] (Eterna round: R96, puzzle: Exclusion NG 1)
studySystem: MS2 coat protein
apparent KD of MS2 coat protein [nM]: 35.4
//
seqText: AUUCCCACCCGAGGAUAUGCUUUAUUGCCGGGUGGUCAACAUGAGGAUCACCCAUGUAACUAAACGCAGAAGGCGGACAAUAAG [Ediner] (Eterna round: R96, puzzle: Exclusion NG 2)
studySystem: MS2 coat protein
apparent KD of MS2 coat protein [nM]: 33.8

###

- Tested on: K4 kissing-loop RNA reporter
- methodNotes: apparent KD of K4 kissing-loop reporter; higher = weaker reporter binding
- conditionDetails: Eterna round: R107; input ligand: theophylline 20 uM
reportedEndpoint: apparent KD of K4 kissing-loop reporter (nM)

seqText: CUUGAUGGAAACAUCGAGUAUUUCACUGAUACCAGUAUCGAUAGAUACCCUUGGCAGCAGGAUCAGUGUUUACGAGUGAUGUUCG [Ex Theophylline A K4 9]
measureUnit: nM
resultNumber: 380

seqText: AGCUCACACGGAAGGAGCGGAUAGAACUGACAGUUGGGCUCAAGUGAUGUUUGGGCUUGAAUCCAGGUAGGUCGCCGUGUGAGCU [Arg B SS t12]
measureUnit: nM
resultNumber: 123

seqText: GGAUUGCCAGUGAUGUUGGCAUAAACUGAAGGAGCGCGUGAAAACGCAGGUAGGUCGCAGAACCUUGCCAACUGAUCGAAAGAUC [Ex Arginine A K4 29]
measureUnit: nM
resultNumber: 122

###

- Tested on: K4 kissing-loop RNA reporter;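 note: bound reporter read as fluorescence of individual clusters on recovered sequencing chips by microscopy, with normalized cluster intensities fitted with a binding model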
- methodNotes: apparent KD of K4 kissing-loop reporter; higher = weaker reporter binding
- conditionDetails: Eterna round: R107; input ligand: theophylline 20 uM
reportedEndpoint: apparent KD of K4 kissing-loop reporter

seqText: CUCGAGUGAUGUUCCUUUAUUUAUACAGAUACCAGUGAAUUUUAACACCCUUGGCAGCUGGUUGUAUCUUUGUUUUUUACACAUG [JR_Nu_ExcTheophyA_Sub025]
reportedEndpoint: apparent KD of K4 kissing-loop reporter
result: 270 nM
--
seqText: AAAUAGAUCAGUCAUCCAGUGAUGUUGGAAGGAGCGUGCGAAAGCACAGGUAGGUCGCCGAAAUAAAAGUGGCUGAUCAAAAUAA
reportedEndpoint: apparent KD of K4 kissing-loop reporter
result: 193 nM
--
seqText: AAUUCAAACUGAAGGAGCGAGCAAAUCGGAGUGAUGUUCCAAGCGAGUGAUGUUCGCAUAGCUCAGGUAGGUCGCAGUUUGGAUA [Same State Arginie B GF 13]
reportedEndpoint: apparent KD of K4 kissing-loop reporter
result: 101 nM
--
seqText: GGAUCCACCAGUGAUGUUGGAGAAAACUCUAAGGAUAUGACGAAAGUCAGAAGGUGGUAGACUGGACAAAGUCCGGUCGGAUCCA [FmnA 23 U30]
reportedEndpoint: apparent KD of K4 kissing-loop reporter
result: 262 nM
--
seqText: CAUAGUCACUGUGAUACCAGCCCGACUCUUGGCGUCUGCGGUCAAAGCCCAGUGAUGUUGGGCCCUUGGCAGCAUGGCGGCAACA [Xelexebi]
reportedEndpoint: apparent KD of K4 kissing-loop reporter
result: 112 nM
--
seqText: AAGGGCUAGGCGGCCGCCACUGGUCGUGUACACAUACGAGCCAGUGAUGUUGGUAUUGUGUGCGGCAGGACCGGGCCUAGCCGAA [Exclusion - Tryptophan B (Freestyle 25)]
reportedEndpoint: apparent KD of K4 kissing-loop reporter
result: 468 nM
